fluorescence slope by entry:
target: Voltage-gated potassium channel subunit beta-2 (Rattus norvegicus); test: inhibitors of rat Kvbeta2 reductase activity – biochemical, NADPH fluorescence, primary screen (AID 622); details: recombinant KvBeta, 4-cyanobenzaldehyde reduction, at 10 µM, hits give high values;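 further: slope of raw intensity against log time taken from 70 to 1610 s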
measured-quantity: fluorescence slope

| compound | value-reported |
| --- | --- |
| Cc1cc(Cl)ccc1OCC(=O)Nn1c(C)ccc1C | -0.525 |
| CCOCC(=O)Nc1c(C(=O)Nc2ccc(OC)cc2OC)oc2ccccc12 | -0.19 |
| Cc1ccc(N=Cc2ccc[nH]2)c(O)c1 | -0.373 |
| Cn1c2ccccc2c2ncn(CCCN3CCOCC3)c(=O)c21 | -0.383 |
| Cc1nn(-c2ccc(Cl)cc2)c2sc(C(=O)N3CCN(c4ccccn4)CC3)cc12 | -0.612 |
| Cc1ccc2cc(CCNC(=O)C(C)C)c(=O)[nH]c2c1C | -0.57 |
| O=C(CSc1nnc(-c2ccncc2)n1-c1ccc(F)cc1)NC(=O)NCc1ccco1 | -0.46 |
| CC(=O)Nc1ccc2c(c1)nc(CCNC(=O)c1ccccc1)n2C | -0.54 |
| CN(C1CCS(=O)(=O)C1)S(=O)C12CC3CC(CC(C3)C1)C2 (stereo unspecified) | -0.533 |
| Cc1ccc(N=Cc2ccc(O)cc2O)cc1F | -0.395 |
| CCOC(=O)c1cc2c(=O)n3cccc(C)c3nc2n(CCOC)c1=NC(=O)c1ccncc1 | -0.346 |
